- System: P. vulgatus RND KO;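 further: active when median AUC fell below 0.1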
- assayInfo: growth AUC normalised to DMSO control (median) (fraction of control); higher = less growth inhibition, active = hit call of the paper;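 active = normalised median growth AUC below 0.1 of DMSO control; inactive = AUC 0.1 or higher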
- assayConditions: 20 µM
Counter-ions that a name gives are not always drawn.
Outcome codes: Yes (active), No (inactive)

# compound, assignedCategory
records = [
    ("Cc1ncc([N+](=O)[O-])n1CCO", "Yes"),
    ("O=C(N[C@H](CO)[C@H](O)c1ccc([N+](=O)[O-])cc1)C(Cl)Cl", "Yes"),
    ("CC(C)C(=O)OCC(=O)[C@@]12O[C@H](C3CCCCC3)O[C@@H]1C[C@H]1[C@@H]3CCC4=CC(=O)C=C[C@]4(C)[C@H]3[C@@H](O)C[C@@]12C [Ciclesonide]", "No"),
    ("C#C[C@]1(O)CC[C@H]2[C@@H]3CCC4=CC(=O)CC[C@@H]4[C@H]3CC[C@@]21C", "No"),
    ("COc1cccc(CCc2ccccc2OCC(CN(C)C)OC(=O)CCC(=O)O)c1 (configuration not stated) [Sarpogrelate hydrochloride]", "No"),
    ("CCC(=O)c1ccc(O)cc1", "No"),
    ("CC(C)Oc1ccc2c(=O)c(-c3ccccc3)coc2c1", "No"),
    ("CC(C(=O)O)c1ccc(N2Cc3ccccc3C2=O)cc1 (configuration not stated)", "No"),
    ("NCCCCCC(=O)O", "No"),
    ("CC(C(=O)O)c1ccc2c(c1)CC(=O)c1ccccc1S2 (configuration not stated)", "No"),
    ("CCOC(=O)[C@H](CCc1ccccc1)N[C@@H](C)C(=O)N(CC(=O)O)C1Cc2ccccc2C1 [Delapril Hydrochloride]", "No"),
    ("CO[C@@H]1[C@@H](OC(N)=O)[C@@H](O)[C@H](Oc2ccc3c(O)c(NC(=O)c4ccc(O)c(CC=C(C)C)c4)c(=O)oc3c2C)OC1(C)C [Novobiocin sodium salt]", "Yes"),
]

* * *

- Tested on: P. vulgatus RND KO;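 further: active when median AUC fell below 0.1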
- assayInfo: growth AUC normalised to DMSO control (median) (fraction of control); higher = less growth inhibition, active = hit call of the paper;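 active = normalised median growth AUC below 0.1 of DMSO control; inactive = AUC 0.1 or higher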
- assayConditions: 20 µM
Structures can show the parent of a compound that is named as a salt.
Possible outcomes: class 1 (active), class 0 (inactive)

# compound, assignedCategory
rows = [
    ("CC(=O)O[C@H]1C[C@@H]2CC[C@@H]3[C@H](CC[C@@]4(C)[C@H]3C[C@H]([N+]3(C)CCCCC3)[C@@H]4OC(C)=O)[C@@]2(C)C[C@@H]1N1CCCCC1 [Vecuronium bromide]", "class 0"),
    ("CN1CCC(OC(c2ccccc2)c2ccccc2)CC1 [Diphenylpyraline hydrochloride]", "class 0"),
    ("OCCN1CCN(CCCN2c3ccccc3Sc3ccc(C(F)(F)F)cc32)CC1 [Fluphenazine dihydrochloride]", "class 0"),
    ("COc1ccc2[nH]c([S+]([O-])Cc3ncc(C)c(OC)c3C)nc2c1 (centres undefined)", "class 0"),
    ("OC[C@H]1O[C@@H](c2ccc(Cl)c(Cc3ccc(O[C@H]4CCOC4)cc3)c2)[C@H](O)[C@@H](O)[C@@H]1O", "class 0"),
    ("CCN[C@H]1C[C@H](C)S(=O)(=O)c2sc(S(N)(=O)=O)cc21 [Dorzolamide hydrochloride]", "class 0"),
    ("CCN(CC)CCOC(=O)C1(c2ccc([N+](=O)[O-])cc2)CCCC1 [Nitrocaramiphen hydrochloride]", "class 0"),
    ("Cc1ccc(-c2cc(C(F)(F)F)nn2-c2ccc(S(N)(=O)=O)cc2)cc1", "class 0"),
    ("C[N+](C)(CCOc1ccccc1)Cc1ccccc1.O=C([O-])c1cc2ccccc2cc1O [Bephenium hydroxynaphthoate]", "class 0"),
    ("Cc1cc(C(C)(C)C)cc(C)c1CC1=NCCN1 [Xylometazoline hydrochloride]", "class 0"),
    ("Cc1c(C(=O)NN2CCCCC2)nn(-c2ccc(Cl)cc2Cl)c1-c1ccc(Cl)cc1", "class 0"),
    ("CN(C)CCC(c1ccccc1)c1ccccn1 (centres undefined) [Pheniramine maleate]", "class 0"),
    ("CC(=O)Oc1cccc2c1C(=O)c1c(OC(C)=O)cc(C(=O)O)cc1C2=O", "class 1"),
    ("CC(C)NCC(O)c1ccc(O)c(O)c1 (single isomer, unassigned; (+)) [(+) Isoproterenol-(+)-bitartrate salt]", "class 0"),
    ("CCOc1ccccc1C(N)=O [Ethenzamide]", "class 0"),
    ("COc1ccc(Cl)cc1C(=O)NCCc1ccc(S(=O)(=O)NC(=O)NC2CCCCC2)cc1 [Glibenclamide]", "class 0"),
    ("C[N+](C)(C)C[C@H](O)CC(=O)[O-]", "class 0"),
    ("O=C(Nc1ccccc1)OCC(CN1CCCCC1)OC(=O)Nc1ccccc1 (centres undefined) [Diperodon hydrochloride]", "class 0"),
    ("COc1ccc2cc([C@H](C)C(=O)O)ccc2c1 [(S)-Naproxen]", "class 0"),
    ("CC(=O)Oc1ccc(C(=C2CCCCC2)c2ccc(OC(C)=O)cc2)cc1", "class 0"),
    ("CN(Cc1ccc(C(C)(C)C)cc1)Cc1cccc2ccccc12 [Butenafine hydrochloride]", "class 0"),
    ("O=C1Nc2ccccc2C1(c1ccc(O)cc1)c1ccc(O)cc1", "class 0"),
    ("N[C@@H]1CCCCN(c2c(F)cc3c(=O)c(C(=O)O)cn(C4CC4)c3c2Cl)C1 [Besifloxacin hydrochloride]", "class 1"),
    ("COC(=O)C1=C(C)NC(C)=C(C(=O)O[C@H]2CCN(Cc3ccccc3)C2)[C@H]1c1cccc([N+](=O)[O-])c1 [Barnidipine Hydrochloride]", "class 0"),
    ("CC(C)(Oc1ccc(C2CC2(Cl)Cl)cc1)C(=O)O (centres undefined) [Ciprofibrate]", "class 0"),
    ("CC1(C)S[C@@H]2[C@H](NC(=O)[C@H](N)c3ccccc3)C(=O)N2[C@H]1C(=O)OC1OC(=O)c2ccccc21 (some centres undefined) [Talampicillin hydrochloride]", "class 1"),
    ("C[C@]12CCC(=O)C=C1CC[C@@H]1[C@@H]2[C@@H](O)C[C@@]2(C)[C@H]1CC[C@]2(O)C(=O)CO [Hydrocortisone]", "class 0"),
    ("O=C1Nc2ccc(Cl)cc2[C@@](C#CC2CC2)(C(F)(F)F)O1", "class 0"),
    ("Cn1c(=O)c2c(ncn2CC(=O)O)n(C)c1=O", "class 0"),
]
